- Tested on: α-isomaltosylglucosaccharide-forming enzyme
- experiment: Transfer-acceptor specificity, enzyme of C9 strain
- Assay type: biochemical, Bacillus globisporus C9 strain
- Parameters: key: −: no saccharide-transferred product was detected through transfer reaction to acceptor; ±: a saccharide-transferred product was detected in an amount less than one percent through transfer reaction to acceptor; +: a saccharide-transferred product was detected in an amount over one percent but less than 10% through transfer reaction to acceptor; ++: a saccharide-transferred product was detected in an amount over ten percent through transfer reaction to acceptor
- experimentalContext: acceptor 1.6%, PINE-DEX #100 donor 4%, one unit/g donor, 30° C., pH 6.0, 24 hours
endpointName: Product of transferring reaction, Enzyme of C9 strain

| inputSmiles | result |
| --- | --- |
| O=C[C@@H](O)[C@@H](O)[C@H](O)[C@H](O)CO | − |
| OC[C@H]1O[C@@H]2O[C@H]3[C@H](O)[C@@H](O)[C@@H](O[C@H]4[C@H](O)[C@@H](O)[C@@H](O[C@H]5[C@H](O)[C@@H](O)[C@@H](O[C@H]6[C@H](O)[C@@H](O)[C@@H](O[C@H]7[C@H](O)[C@@H](O)[C@@H](O[C@H]8[C@H](O)[C@@H](O)[C@@H](O[C@H]1[C@H](O)[C@H]2O)O[C@@H]8CO)O[C@@H]7CO)O[C@@H]6CO)O[C@@H]5CO)O[C@@H]4CO)O[C@@H]3CO | − |

====

- Test system: α-isomaltosyl-transferring enzyme
- experiment: Influence of metal ions on α-isomaltosyl-transferring enzyme activity (N75 strain)
- Assay type: biochemical, Bacillus globisporus N75 strain
- experimentalContext: in the presence of 1 mM of each metal-ion; None = 100
# note: boundary value 90% maps to Not satisfied; Relative activity (%) below it maps to Satisfied

Examples with answers:
| compound | label |
| --- | --- |
| [Cu+2] [Cu^2+] | Satisfied |
| [Ba+2] [Ba^2+] | Not satisfied |
| [Hg+2] [Hg^2+] | Satisfied |
| [Ca+2] [Ca^2+] | Not satisfied |
| [Zn+2] [Zn^2+] | Satisfied |
| [Pb+2] [Pb^2+] | Satisfied |

Now consider a different compound.
Query: Just wondering, is Relative activity (%) of [Al+3] [Al^3+] below 90%?
Reply: Not satisfied

====

- Tested on: α-isomaltosylglucosaccharide-forming enzyme
- experiment: Action on saccharides as substrates (TLC), enzyme of C9 strain
- Format: biochemical, Bacillus globisporus C9 strain
- Parameters: key: −: it showed no change; +: it showed a slight reduction of the color spot of the substrate and the formation of other reaction product; ++: it showed a high reduction of the color spot of the substrate and the formation of other reaction product; +++: it showed a substantial disappearance of the substrate spot and the formation of other reaction product
- experimentalContext: two units/g substrate, substrate 2% (w/v), 30° C., pH 6.0, 24 hours
- Text: To examine the saccharides in the supernatant, they were separated by developing twice on silica gel thin-layer chromatography (abbreviated as “TLC” hereinafter) using, as a developer, a mixture solution of n-butanol, pyridine, and water (=6:4:1 by volume), and, as a thin-layer plate, “[…]™ 60”, an aluminum plate (20×20 cm) for TLC commercialized by Merck & Co., Inc., Rahway, USA. […]
endpointName: Enzymatic action, Enzyme of C9 strain

| compound | testedTarget | result |
| --- | --- | --- |
| OC[C@H]1O[C@H](O[C@H]2[C@H](O)[C@@H](O)[C@@H](OC[C@H]3OC(O)[C@H](O)[C@@H](O)[C@@H]3O)O[C@@H]2CO)[C@H](O)[C@@H](O)[C@@H]1O (stereo partly drawn) | α-isomaltosylglucosaccharide-forming enzyme | ++ |
| OC[C@@H](O)[C@@H](O[C@H]1O[C@H](CO)[C@@H](O[C@H]2O[C@H](CO)[C@@H](O)[C@H](O)[C@H]2O)[C@H](O)[C@H]1O)[C@H](O)[C@@H](O)CO | α-isomaltosylglucosaccharide-forming enzyme | + |
| OC[C@H]1O[C@@H](O[C@H]2O[C@H](CO)[C@@H](O)[C@H](O)[C@H]2O)[C@H](O)[C@@H](O)[C@@H]1O | α-isomaltosylglucosaccharide-forming enzyme | + |
